Listing: mass density of selected compounds
# run-parameters: 298.15 K; 101 kPa; Liquid

# compound, readout-unit, mass density
records = [
    ("CCCCC(CC)CO (centres undefined) [2-ethyl-1-hexanol]", "kg/m3", 829.07),
    ("Clc1ccccc1 [chlorobenzene]", "kg/m3", 1101.03),
    ("Brc1ccccc1 [bromobenzene]", "kg/m3", 1488.12),
    ("c1ccccc1 [benzene]", "kg/m3", 873.66),
]

----------
# measurement-description: refractive index (Na D-line) (dimensionless)
# run-parameters: 308.15 K; 101.33 kPa; Liquid
readout-type: refractive index

# compound, meas-value
records = [
    ("c1ccccc1 [benzene]", 1.4929),
    ("CCCCC(CC)CO (centres undefined) [2-ethyl-1-hexanol]", 1.4245),
    ("Clc1ccccc1 [chlorobenzene]", 1.518),
    ("Brc1ccccc1 [bromobenzene]", 1.553),
]

----------
# run-parameters: 303.15 K; 101 kPa; Liquid
Listing: viscosity of selected compounds
readout-type: viscosity (mPa·s)

# compound, readout-type, readout-unit, meas-value
rows = [
    ("CCCCC(CC)CO (centres undefined) [2-ethyl-1-hexanol]", "viscosity", "mPa·s", 7.144),
    ("Brc1ccccc1 [bromobenzene]", "viscosity", "mPa·s", 1.005),
    ("Clc1ccccc1 [chlorobenzene]", "viscosity", "mPa·s", 0.716),
    ("c1ccccc1 [benzene]", "viscosity", "mPa·s", 0.557),
]

----------
# run-parameters: 303.15 K; 101 kPa; Liquid; Sing-around technique in a fixed-path interferometer
Listing: speed of sound of selected compounds

# compound, speed of sound [m/s]
data = [
    ("Clc1ccccc1 [chlorobenzene]", 1249),
    ("c1ccccc1 [benzene]", 1276),
    ("Brc1ccccc1 [bromobenzene]", 1138),
    ("CCCCC(CC)CO (centres undefined) [2-ethyl-1-hexanol]", 1301),
]

----------
# run-parameters: 308.15 K; 101 kPa; Liquid; Sing-around technique in a fixed-path interferometer
readout-type: speed of sound (m/s)

# compound, meas-value
rows = [
    ("Brc1ccccc1", 1122),
    ("Clc1ccccc1", 1231),
    ("CCCCC(CC)CO (centres undefined)", 1283),
    ("c1ccccc1", 1253),
]

----------
Listing: viscosity of selected molecules
# run-parameters: 298.15 K; 101 kPa; Liquid

# molecule, viscosity [mPa·s]
measured = [
    ("Brc1ccccc1", 1.065),
    ("CCCCC(CC)CO (centres undefined)", 8.418),
    ("c1ccccc1", 0.603),
    ("Clc1ccccc1", 0.767),
]

----------
# run-parameters: 303.15 K; 101 kPa; Liquid
Listing: mass density of selected compounds

# compound, mass density / kg/m3
measured = [
    ("Clc1ccccc1 [chlorobenzene]", 1095.52),
    ("Brc1ccccc1 [bromobenzene]", 1481.4),
    ("c1ccccc1 [benzene]", 868.29),
    ("CCCCC(CC)CO (centres undefined) [2-ethyl-1-hexanol]", 825.39),
]

----------
# measurement-description: refractive index (Na D-line) (dimensionless)
# run-parameters: 298.15 K; 101.33 kPa; Liquid
readout-type: refractive index

# compound, readout-type, meas-value
records = [
    ("Brc1ccccc1", "refractive index", 1.557),
    ("CCCCC(CC)CO (centres undefined)", "refractive index", 1.4287),
    ("c1ccccc1", "refractive index", 1.4969),
    ("Clc1ccccc1", "refractive index", 1.524),
]

----------
Listing: speed of sound of selected compounds
# run-parameters: 298.15 K; 101 kPa; Liquid; Sing-around technique in a fixed-path interferometer

# compound, readout-unit, speed of sound
rows = [
    ("CCCCC(CC)CO (centres undefined)", "m/s", 1319),
    ("c1ccccc1", "m/s", 1299),
    ("Clc1ccccc1", "m/s", 1268),
    ("Brc1ccccc1", "m/s", 1153),
]

----------
Listing: mass density of selected molecules
# run-parameters: 308.15 K; 101 kPa; Liquid

# molecule, mass density / kg/m3
measured = [
    ("c1ccccc1 [benzene]", 862.92),
    ("CCCCC(CC)CO (centres undefined) [2-ethyl-1-hexanol]", 821.68),
    ("Brc1ccccc1 [bromobenzene]", 1474.58),
    ("Clc1ccccc1 [chlorobenzene]", 1090.2),
]
